STUDY_SYSTEM: Tyrosine-protein kinase JAK2 (Homo sapiens)
Sequence (O60674 whole entry, the tested form may be a part): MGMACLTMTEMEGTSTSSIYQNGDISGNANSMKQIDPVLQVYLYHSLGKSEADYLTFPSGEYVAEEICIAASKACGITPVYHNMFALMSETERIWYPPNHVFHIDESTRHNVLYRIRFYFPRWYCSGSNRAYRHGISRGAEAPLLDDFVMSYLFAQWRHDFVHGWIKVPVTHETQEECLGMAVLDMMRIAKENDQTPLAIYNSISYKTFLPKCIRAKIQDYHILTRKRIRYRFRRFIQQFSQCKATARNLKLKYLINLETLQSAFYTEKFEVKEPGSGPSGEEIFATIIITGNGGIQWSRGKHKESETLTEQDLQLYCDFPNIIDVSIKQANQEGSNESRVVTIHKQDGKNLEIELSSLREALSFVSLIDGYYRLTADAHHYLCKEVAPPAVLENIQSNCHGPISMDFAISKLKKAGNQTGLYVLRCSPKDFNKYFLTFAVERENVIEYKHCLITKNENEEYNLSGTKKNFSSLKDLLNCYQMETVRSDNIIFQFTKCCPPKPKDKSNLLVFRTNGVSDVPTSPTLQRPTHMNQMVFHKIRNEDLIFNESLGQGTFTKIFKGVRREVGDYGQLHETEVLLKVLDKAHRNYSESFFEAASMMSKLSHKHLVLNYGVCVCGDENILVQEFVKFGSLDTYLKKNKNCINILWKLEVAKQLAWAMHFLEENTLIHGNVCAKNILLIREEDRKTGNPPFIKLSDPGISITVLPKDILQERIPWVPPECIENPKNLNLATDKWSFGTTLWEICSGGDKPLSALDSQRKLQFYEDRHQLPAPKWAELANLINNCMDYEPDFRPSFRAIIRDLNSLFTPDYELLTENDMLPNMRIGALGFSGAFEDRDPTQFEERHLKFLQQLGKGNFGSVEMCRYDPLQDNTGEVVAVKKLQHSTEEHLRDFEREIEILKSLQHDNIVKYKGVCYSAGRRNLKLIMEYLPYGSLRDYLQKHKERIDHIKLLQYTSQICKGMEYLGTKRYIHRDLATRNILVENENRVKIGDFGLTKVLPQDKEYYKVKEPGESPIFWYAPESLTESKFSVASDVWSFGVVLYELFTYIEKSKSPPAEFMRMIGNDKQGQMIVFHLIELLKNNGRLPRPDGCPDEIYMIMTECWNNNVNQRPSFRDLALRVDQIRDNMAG
ASSAY_EXPLANATION: Binding affinity to wild type JAK2 JH2 domain (unknown origin) by competitive fluorescence polarization assay
pKd: −log10 of the molar value.
Where pKd equals or exceeds 5, the correct label is criterion met; where it does not, the label is criterion not met.

Request: Does the reported pKd for Nc1nc(Nc2ccc(C(=O)NCCCCCNC(=S)Nc3ccc4c(c3)C(=O)OC43c4ccc(O)cc4Oc4cc(O)ccc43)cc2)nn1C(=O)c1c(F)cccc1F fall at or above the 5 mark?
Result: criterion met

Request: Follow-up entry: CS(=O)(=O)NCc1cn(-c2nc(N)nc(Nc3ccc(C#N)cc3)n2)nn1
Result: criterion not met

Request: Also N#Cc1ccc(Nc2nc(N)cc(-n3ccc(CO)n3)n2)cc1 ?
Result: criterion not met

Request: Next compound: CN(Cc1ccc(Nc2nc(N)n(C(=O)c3c(F)cccc3F)n2)cc1)C(=S)Nc1ccc2c(c1)C(=O)OC21c2ccc(O)cc2Oc2cc(O)ccc21
Result: criterion met

Request: Now consider Cc1cc(C)n2c1C=C1C=CC(CCC(=O)NCCNC(=O)O[C@H]3[C@@H](O)[C@H](n4cnc5c(N)ncnc54)O[C@@H]3COP(=O)(O)OP(=O)(O)OP(=O)(O)O)=[N+]1[B-]2(F)F .
Result: criterion met

Request: Follow-up entry: N#Cc1ccc(Nc2nc(N)nc(-c3ccc(CO)o3)n2)cc1
Result: criterion not met
